assay: CCTE_Shafer_MEA_acute_burst_percentage_mean: CCTE's Neural Acute Assay for Percentage of Spikes in a Burst, Shafer Lab (AID 2284017);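 for AC50: curve fitted for loss of signal so potency reflects decreased burst percentage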
Activity calls are given as the source filed them. Rule for the calls: active = hit-call score of the fitted dose curve at least 0.9, where 1 is the maximum; inactive = score below 0.9.
Readout label: AC50

Take a look at these entries with their results.
Molecule: C/C=C/c1ccc(OC)cc1
AC50: inactive
//
Molecule: c1ccc2occc2c1
AC50: inactive
//
Molecule: CCc1cc(C2=C(C(=O)O)N(c3ccccc3C(F)(F)F)S(=O)(=O)c3ccccc32)cc2c1OCO2
AC50: inactive
//
Molecule: Cc1cc(SC2=C(O)C[C@@](CCc3ccc(N)cc3)(C(C)C)OC2=O)c(C(C)(C)C)cc1CO
AC50: inactive

Record AC50 for all entries; do not skip any.
1. O=C(N[C@@H](c1ccccc1)[C@@H]1CCCCN1)c1cccc(C(F)(F)F)c1Cl
2. Oc1ccc(O)cc1
3. CC(C)NCC(O)c1ccc(O)c(O)c1 (stereo not drawn)
4. COc1ccc(OC(F)(F)F)cc1CN[C@H]1CCCN[C@H]1c1ccccc1

Marked response:
5 µM (active)
inactive
inactive
4.59 µM (active)

Record AC50 for all entries; do not skip any.
1. CSc1ccc(Oc2ccc(S(N)(=O)=O)cc2CN(C)C)cc1C
2. CC(C)COC(=O)CCCCC(=O)OCC(C)C
3. Cc1c(C)c2c(c(C)c1O)CCC(C)(COc1ccc(CC3SC(=O)NC3=O)cc1)O2 (stereo not drawn)
4. Nc1nc(=S)c2[nH]cnc2[nH]1
5. CN(C)C(=O)NC1(c2ccccc2)CCN(CC[C@@]2(c3ccc(F)c(F)c3)CN(C(=O)c3ccccc3)CCO2)CC1

Marked response:
31.8 µM (active)
inactive
32.9 µM (active)
5.71 µM (active)
inactive

---

assay: CCTE_Shafer_MEA_acute_spike_number: CCTE's Neural Acute Assay for Total Number of Spikes, Shafer Lab (AID 2284008)
Activity calls are given as the source filed them. How the source made its calls: active means hit-call score of the fitted dose curve at least 0.9, where 1 is the maximum; inactive means score below 0.9.
Hi there, use one of these labels in your reply, thanks! T = active, F = inactive

Worked cases, answers included:
Smiles code: Cc1ccc(-c2cc(C(F)(F)F)nn2-c2ccc(S(N)(=O)=O)cc2)cc1
Class: T
--
Smiles code: CC1=C(C)S(=O)(=O)CCS1(=O)=O
Class: F
--
Smiles code: CCN(CC)CCOc1ccc(C(=C(Cl)c2ccccc2)c2ccccc2)cc1
Class: T
--
Smiles code: CN(C)CCCN1c2ccccc2Sc2ccc(Cl)cc21
Class: F
--
Smiles code: CC(N)=O
Class: F
--
Smiles code: O=C1OC(c2ccc(O)cc2)(c2ccc(O)cc2)c2ccccc21
Class: F
--
Smiles code: Cc1ccc(C(C)(C)C)c(O)c1
Class: T
--
Smiles code: c1ccc2occc2c1
Class: F
--
Smiles code: CCCC(=O)O
Class: F
--
Smiles code: CC(C)COC(=O)CCCCC(=O)OCC(C)C
Class: F

Exam item: Could you check what this test reported for "CN(C)C(=O)NC1(c2ccccc2)CCN(CC[C@@]2(c3ccc(F)c(F)c3)CN(C(=O)c3ccccc3)CCO2)CC1" ?
Marked response: T

Exam item: Could you check what this test reported for "COC(=O)[C@H]1[C@H]2C[C@@H]3c4[nH]c5cc(OC)ccc5c4CCN3C[C@H]2C[C@@H](OC(=O)c2cc(OC)c(OC)c(OC)c2)[C@@H]1OC" ?
Marked response: T

Exam item: Could you check what this test reported for "NC(=Nc1ccccc1)Nc1ccccc1" ?
Marked response: T

Exam item: Could you check what this test reported for "CN(C)C(=O)NC1(c2ccccc2)CCN(CCC[C@]2(c3ccc(Cl)c(Cl)c3)CCCN(C(=O)c3ccccc3)C2)CC1" ?
Marked response: F

Exam item: Could you check what this test reported for "O=C(O)CN(CC(=O)O)CC(=O)O" ?
Marked response: F

Exam item: Could you check what this test reported for "COc1ccc(OC(F)(F)F)cc1CN[C@H]1CCCN[C@H]1c1ccccc1" ?
Marked response: T

Exam item: Could you check what this test reported for "OCC(CO)n1cnc(-c2ccc(F)cc2)c1-c1ccnc(Oc2ccccc2)n1" ?
Marked response: F

Exam item: Could you check what this test reported for "Oc1ccc(O)cc1" ?
Marked response: F

Exam item: Could you check what this test reported for "CCc1cc(C2=C(C(=O)O)N(c3ccccc3C(F)(F)F)S(=O)(=O)c3ccccc32)cc2c1OCO2" ?
Marked response: F

---

assay: BSK_3C_Proliferation: Cell Proliferation Assessment in the BioMAP Diversity Plus: 3C Assay (AID 2283006); conditions: primary human endothelial cells (HUVEC)
The source made the active and inactive calls. The calls were made as follows: active = hit-call score of the fitted dose curve at least 0.9, where 1 is the maximum; inactive = score below 0.9.
Hi there, use one of these labels in your reply, thanks! active, inactive

Worked cases, answers included:
Compound: CCCC(=O)O
Class: inactive

Compound: COc1ccc(OC(F)(F)F)cc1CN[C@H]1CCCN[C@H]1c1ccccc1
Class: active

Compound: Nc1nc(=S)c2[nH]cnc2[nH]1
Class: inactive

Compound: O=C1OC(c2ccc(O)cc2)(c2ccc(O)cc2)c2ccccc21
Class: active

Compound: OCC(O)CO
Class: inactive

Compound: O=C1NC(=O)C(c2ccccc2)(c2ccccc2)N1
Class: inactive

Compound: O=C(O)c1[nH]n(-c2ccc(S(=O)(=O)O)cc2)c(=O)c1N=Nc1ccc(S(=O)(=O)O)cc1
Class: inactive

Compound: NC1CCCCC1
Class: inactive

Exam item: Could you check what this test reported for "CN(C)C(=O)NC1(c2ccccc2)CCN(CC[C@@]2(c3ccc(F)c(F)c3)CN(C(=O)c3ccccc3)CCO2)CC1" ?
Marked response: inactive

Exam item: Could you check what this test reported for "O=C(N[C@@H](c1ccccc1)[C@@H]1CCCCN1)c1cccc(C(F)(F)F)c1Cl" ?
Marked response: active

Exam item: Could you check what this test reported for CC(=O)OC1CC(C)OC(C)O1 (centres undefined) ?
Marked response: inactive

Exam item: Could you check what this test reported for "CCc1cc(C2=C(C(=O)O)N(c3ccccc3C(F)(F)F)S(=O)(=O)c3ccccc32)cc2c1OCO2" ?
Marked response: active

Exam item: Could you check what this test reported for "CC(C)COC(=O)CCCCC(=O)OCC(C)C" ?
Marked response: inactive

Exam item: Could you check what this test reported for "O=[Si]=O" ?
Marked response: inactive

Exam item: Could you check what this test reported for "Cc1cc(Cc2ccc(N)c(C)c2)ccc1N" ?
Marked response: inactive

Exam item: Could you check what this test reported for "O=C1CCCCC1" ?
Marked response: inactive

Exam item: Could you check what this test reported for Cc1c(C)c2c(c(C)c1O)CCC(C)(COc1ccc(CC3SC(=O)NC3=O)cc1)O2 (centres undefined) ?
Marked response: active

Exam item: Could you check what this test reported for "S=c1[nH]c2ccccc2s1" ?
Marked response: inactive

---

read-out: Plasminogen activator inhibitor-1 (PAI1), SERPINE1 (gene 5054); experiment: BSK_BE3C_PAI1: BioMAP Diversity Plus: BE3C Assay for Plasminogen activator inhibitor-1 (PAI1) Biomarker Activity (AID 2283037); settings: primary human bronchial epithelial cells; actives raise or lower the signal
Activity calls are given as the source filed them. The calls were made as follows: active = hit-call score of the fitted dose curve at least 0.9, where 1 is the maximum; inactive = score below 0.9.
Hi there, use one of these labels in your reply, thanks! active, inactive

Worked cases, answers included:
Compound: Cc1cn([C@H]2C=C[C@@H](CO)O2)c(=O)[nH]c1=O
Class: inactive
//
Compound: CCCCC(CC)COC(=O)CCCCCCCC(=O)OCC(CC)CCCC (configuration not stated)
Class: inactive
//
Compound: CCN(CC)CCOc1ccc(C(=C(Cl)c2ccccc2)c2ccccc2)cc1
Class: active
//
Compound: Cc1ccc(-c2cc(C(F)(F)F)nn2-c2ccc(S(N)(=O)=O)cc2)cc1
Class: active
//
Compound: C=CCCCCCCCCCCCC
Class: inactive

Exam item: Could you check what this test reported for "COC(=O)CCCC(=O)OC" ?
Marked response: inactive

Exam item: Could you check what this test reported for "CCCCCCCCCCCCCCCCO" ?
Marked response: inactive

---

read-out: ATP-citrate lyase (ACLY), ACLY (gene 47); test: LTEA_HepaRG_ACLY: Life Technologies and Expression Analysis (LTEA) Assay for ATP-citrate lyase (ACLY) using HepaRG (AID 2283466); details: mRNA level, 48 h; actives raise or lower the signal
Calls of active or inactive are those of the source. Rule for the calls: active = hit-call score of the fitted dose curve at least 0.9, where 1 is the maximum; inactive = score below 0.9.
Hi there, use one of these labels in your reply, thanks! 1 (yes) (active), 0 (no) (inactive)

Worked cases, answers included:
Compound: Cc1cc(SC2=C(O)C[C@@](CCc3ccc(N)cc3)(C(C)C)OC2=O)c(C(C)(C)C)cc1CO
Class: 0 (no)
--
Compound: CCCCCCC(CCCCCCCCCCC(=O)OCC(COC(C)=O)OC(C)=O)OC(C)=O (centres undefined)
Class: 0 (no)
--
Compound: Cn1cnc2c1c(=O)[nH]c(=O)n2C
Class: 0 (no)

Next up:
Exam item: Could you check what this test reported for "CCCCCCCCCCCCCCCCO" ?
Marked response: 0 (no)

---

Read-out: Protein phosphatase 2A (PPP2R4), PTPA (gene 5524)
Assay: LTEA_HepaRG_PPP2R4: Life Technologies and Expression Analysis (LTEA) Assay for Protein phosphatase 2A (PPP2R4) using HepaRG (AID 2283522)
Conditions: mRNA level, 48 h; actives raise or lower the signal
Procedure: LTEA_HepaRG is a cell based, multiplexed-readout assay that uses HepaRG, a human liver cell line, with measurements taken at 48 hours after chemical dosing on a 96-well plate.LTEA_HepaRG_PPP2R4 is one of 102 assay component(s) measured in the LTEA HepaRG cell culture assay. It is a marker of Cell proliferation, survival, death.Data from the assay component LTEA_HepaRG_PPP2R4 was analyzed into 1 endpoint. […]
Activity calls are given as the source filed them. How the source made its calls: active means hit-call score of the fitted dose curve at least 0.9, where 1 is the maximum; inactive means score below 0.9.
Hi there, use one of these labels in your reply, thanks! active, inactive

Worked cases, answers included:
Compound: CCCCC(CC)CO (stereo unspecified)
Class: inactive
//
Compound: O=C(O)c1[nH]n(-c2ccc(S(=O)(=O)O)cc2)c(=O)c1N=Nc1ccc(S(=O)(=O)O)cc1
Class: inactive
//
Compound: CN(C)C(=O)NC1(c2ccccc2)CCN(CC[C@@]2(c3ccc(F)c(F)c3)CN(C(=O)c3ccccc3)CCO2)CC1
Class: inactive
//
Compound: CCN(CC)CCOc1ccc(C(=C(Cl)c2ccccc2)c2ccccc2)cc1
Class: inactive
//
Compound: CC(C)c1cccc(C(C)C)c1
Class: inactive

Exam item: Could you check what this test reported for "COC(=O)[C@H]1[C@H]2C[C@@H]3c4[nH]c5cc(OC)ccc5c4CCN3C[C@H]2C[C@@H](OC(=O)c2cc(OC)c(OC)c(OC)c2)[C@@H]1OC" ?
Marked response: inactive

Exam item: Could you check what this test reported for "CN(C)CCCN1c2ccccc2Sc2ccc(Cl)cc21" ?
Marked response: inactive

Exam item: Could you check what this test reported for "COC(=O)CCCC(=O)OC" ?
Marked response: inactive

Exam item: Could you check what this test reported for "Oc1ccccc1O" ?
Marked response: inactive

Exam item: Could you check what this test reported for "CC(C)(C)c1ccccc1" ?
Marked response: inactive

Exam item: Could you check what this test reported for CC(C)NCC(O)c1ccc(O)c(O)c1 (stereo unspecified) ?
Marked response: active

Exam item: Could you check what this test reported for "CN(C)CCCN(C)CCCN(C)C" ?
Marked response: inactive

Exam item: Could you check what this test reported for "CCCC[C@H]1CN(CC2CCOCC2)C(=O)OC12CCN(C1(C)CCN(C(=O)c3c(C)ncnc3C)CC1)CC2" ?
Marked response: inactive

Exam item: Could you check what this test reported for "CS(=O)(=O)c1ccc([C@@H](C[C@H]2CCC(=O)C2)C(=O)Nc2cnccn2)cc1Cl" ?
Marked response: active

Exam item: Could you check what this test reported for C#CC(O)C(CC)CCCC (stereo unspecified) ?
Marked response: inactive

Exam item: Could you check what this test reported for "CCCCCCCCCCCCCCOS(=O)(=O)O" ?
Marked response: inactive

Exam item: Could you check what this test reported for "O=C1CCCCC1" ?
Marked response: inactive

Exam item: Could you check what this test reported for "Nc1nc(=S)c2[nH]cnc2[nH]1" ?
Marked response: inactive

Exam item: Could you check what this test reported for "CSc1ccc(Oc2ccc(S(N)(=O)=O)cc2CN(C)C)cc1C" ?
Marked response: inactive

Exam item: Could you check what this test reported for "O=C1OC(c2ccc(O)cc2)(c2ccc(O)cc2)c2ccccc21" ?
Marked response: inactive

Exam item: Could you check what this test reported for "c1ccc2occc2c1" ?
Marked response: inactive

Exam item: Could you check what this test reported for "CCCCCCCC(=O)OC" ?
Marked response: inactive
